Data credit: patent US20170362301A1

# target.entity: EGFR (form in the assay not stated) (human, UniProt P00533 25-645, limits assumed)
# procedure.text: ELISA, NEM conjugate 100 nM
property.name: binding ratio vs parent P54AR4-83v2 (ratio)
All answers are understood in ratio, so give the number only.

Some entries whose results are on file:
* P54AR4-83v2 M83C, NEM conjugate (designed binder, NEM on Cys 83, His-tagged) LPAPKNLVVSEVTEDSARLSWDDPWAFYESFLIQYQESEKVGEAIVLTVPGSERSYDLTGLKPGTEYTVSIYGVHNVYKDTNCRGLPLSAIFTT | 0.04
* P54AR4-83v2 T59C, NEM conjugate (designed binder, NEM on Cys 59, His-tagged) LPAPKNLVVSEVTEDSARLSWDDPWAFYESFLIQYQESEKVGEAIVLTVPGSERSYDLCGLKPGTEYTVSIYGVHNVYKDTNMRGLPLSAIFTT | 1.04
* P54AR4-83v2 S20C, NEM conjugate (designed binder, NEM on Cys 20, His-tagged) LPAPKNLVVSEVTEDSARLCWDDPWAFYESFLIQYQESEKVGEAIVLTVPGSERSYDLTGLKPGTEYTVSIYGVHNVYKDTNMRGLPLSAIFTT | 1.05
* P54AR4-83v2 R84C, NEM conjugate (designed binder, NEM on Cys 84, His-tagged) LPAPKNLVVSEVTEDSARLSWDDPWAFYESFLIQYQESEKVGEAIVLTVPGSERSYDLTGLKPGTEYTVSIYGVHNVYKDTNMCGLPLSAIFTT | 1.04

Form: binder = P54AR4-83v2 P63C, NEM conjugate (designed binder, NEM on Cys 63, His-tagged) LPAPKNLVVSEVTEDSARLSWDDPWAFYESFLIQYQESEKVGEAIVLTVPGSERSYDLTGLKCGTEYTVSIYGVHNVYKDTNMRGLPLSAIFTT ; binding ratio vs parent P54AR4-83v2 = 1.02

Form: binder = P54AR4-83v2 T48C, NEM conjugate (designed binder, NEM on Cys 48, His-tagged) LPAPKNLVVSEVTEDSARLSWDDPWAFYESFLIQYQESEKVGEAIVLCVPGSERSYDLTGLKPGTEYTVSIYGVHNVYKDTNMRGLPLSAIFTT ; binding ratio vs parent P54AR4-83v2 = 1

Form: binder = P54AR4-83v2 G64C, NEM conjugate (designed binder, NEM on Cys 64, His-tagged) LPAPKNLVVSEVTEDSARLSWDDPWAFYESFLIQYQESEKVGEAIVLTVPGSERSYDLTGLKPCTEYTVSIYGVHNVYKDTNMRGLPLSAIFTT ; binding ratio vs parent P54AR4-83v2 = 1.42

Form: binder = P54AR4-83v2 P87C, NEM conjugate (designed binder, NEM on Cys 87, His-tagged) LPAPKNLVVSEVTEDSARLSWDDPWAFYESFLIQYQESEKVGEAIVLTVPGSERSYDLTGLKPGTEYTVSIYGVHNVYKDTNMRGLCLSAIFTT ; binding ratio vs parent P54AR4-83v2 = 0.93

Form: binder = P54AR4-83v2 S89C, NEM conjugate (designed binder, NEM on Cys 89, His-tagged) LPAPKNLVVSEVTEDSARLSWDDPWAFYESFLIQYQESEKVGEAIVLTVPGSERSYDLTGLKPGTEYTVSIYGVHNVYKDTNMRGLPLCAIFTT ; binding ratio vs parent P54AR4-83v2 = 1.02
